What pIC50 was measured for each of the following?
System: MDA-MB-231
Assay info: Cytotoxicity against human MDA-MB-231 cells after 48 hrs by MTT assay
Assay type: functional, cell-based
Setup conditions: MDA-MB-231, 48 h
pIC50: −log10 of the molar value.

O=C1Nc2ccccc2C1=O [ISATIN]    < 4.00

Report pIC50 for each item below.
1. O=C1Nc2ccc(Cl)cc2C1(c1c[nH]c2ccc(Br)cc12)c1c[nH]c2ccc(Br)cc12
2. O=C1Nc2ccc(Cl)cc2C1(c1c(-c2ccccc2)[nH]c2ccccc12)c1c(-c2ccccc2)[nH]c2ccccc12
3. Cn1cc(C2(c3cn(C)c4ccccc34)C(=O)Nc3ccccc32)c2ccccc21
4. c1ccc2[nH]ccc2c1 [INDOLE]

# output
["< 4.00", "< 4.00", "< 4.00", "< 4.00"]

* * *

What log10(IC50) was measured for each of the following?
Tested on: SK-N-SH
Assay info: Cytotoxicity against human SK-N-SH cells after 48 hrs by MTT assay
Format: functional, cell-based
Scale: decimal log of IC50, IC50 in nM.

Record excerpt, results attached:
COC(=O)c1ccc2[nH]cc(C3(c4c[nH]c5ccc(C(=O)OC)cc45)C(=O)Nc4ccccc43)c2c1    2.99
N#Cc1ccc2[nH]cc(C3(c4c[nH]c5ccc(C#N)cc45)C(=O)Nc4ccccc43)c2c1    2.97
O=C1Nc2ccccc2C1(c1c[nH]c2ccccc12)c1c[nH]c2ccccc12    2.95
c1ccc2[nH]ccc2c1    3.25

Report log10(IC50) for each item below.
1. O=C1Nc2ccccc2C1(c1c[nH]c2ccc(Cl)cc12)c1c[nH]c2ccc(Cl)cc12
2. O=C1Nc2ccccc2C1=O
3. COC(=O)c1ccc2[nH]cc(C3(c4c[nH]c5ccc(C(=O)OC)cc45)C(=O)Nc4ccc(Cl)cc43)c2c1
4. Cc1[nH]c2ccc([N+](=O)[O-])cc2c1C1(c2c(C)[nH]c3ccc([N+](=O)[O-])cc23)C(=O)Nc2ccc(Cl)cc21
5. O=C1Nc2ccc(Cl)cc2C1(c1c[nH]c2ccc(Br)cc12)c1c[nH]c2ccc(Br)cc12

# output
1: 3.12; 2: 3.99; 3: 4.00; 4: 3.09; 5: 3.02

* * *

Test system: SK-N-SH
Assay info: Cytotoxicity against human SK-N-SH cells after 48 hrs by MTT assay
Assay type: functional, cell-based
Lab note - cut at 1000 nM for IC50: yes if strictly below, no if not.

Some entries whose results are on file:
O=C1Nc2ccccc2C1(c1c(-c2ccccc2)[nH]c2ccccc12)c1c(-c2ccccc2)[nH]c2ccccc12    no
Cn1cc(C2(c3cn(C)c4ccccc34)C(=O)Nc3ccccc32)c2ccccc21    no
Cc1[nH]c2ccc([N+](=O)[O-])cc2c1C1(c2c(C)[nH]c3ccc([N+](=O)[O-])cc23)C(=O)Nc2ccccc21    yes
O=C1Nc2ccccc2C1(c1c[nH]c2ccc(Br)cc12)c1c[nH]c2ccc(Br)cc12    yes

Consider now this further compound.
# input Quick check: IC50 of `O=C1Nc2ccc(Cl)cc2C1(c1c(-c2ccccc2)[nH]c2ccccc12)c1c(-c2ccccc2)[nH]c2ccccc12` under 1000 nM?
# output no

* * *

What pIC50 was measured for each of the following?
System: MDA-MB-231
Assay info: Cytotoxicity against human MDA-MB-231 cells after 48 hrs by MTT assay
Format: functional, cell-based
Setup conditions: MDA-MB-231, 48 h
One number for each entry, as −log10 of the molar value.

O=C1Nc2ccccc2C1(c1c[nH]c2ccc(Br)cc12)c1c[nH]c2ccc(Br)cc12    5.00

Report pIC50 for each item below.
1. Cc1[nH]c2ccc([N+](=O)[O-])cc2c1C1(c2c(C)[nH]c3ccc([N+](=O)[O-])cc23)C(=O)Nc2ccccc21
2. COC(=O)c1ccc2[nH]cc(C3(c4c[nH]c5ccc(C(=O)OC)cc45)C(=O)Nc4ccc(Cl)cc43)c2c1
3. O=C1Nc2ccccc2C1(c1c[nH]c2ccc(Cl)cc12)c1c[nH]c2ccc(Cl)cc12
4. O=C1Nc2ccccc2C1(c1c[nH]c2ccc([N+](=O)[O-])cc12)c1c[nH]c2ccc([N+](=O)[O-])cc12

# output
4.00
5.00
5.00
5.00
